Recorded values, source the MegaScale stability set (Tsuboyama et al. 2023).

B1: EEHEE_rd4_0003 (parent)
chain: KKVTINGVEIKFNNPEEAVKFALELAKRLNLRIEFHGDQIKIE

Variants of: B1
test.name: folding stability dG (cDNA display proteolysis); higher = more stable
conditions: PBS, room temperature
property.name: folding stability dG
# number then unit; no other words

Consider the reported folding stability dG for these variants:
>  <mutations>
K2L

>  <folding stability dG>
2.84 kcal/mol

$$$$
>  <mutations>
P15M

>  <folding stability dG>
2.97 kcal/mol

$$$$
>  <mutations>
V8F

>  <folding stability dG>
2.71 kcal/mol

$$$$
>  <mutations>
K1F

>  <folding stability dG>
3.5 kcal/mol

$$$$
>  <mutations>
H36F

>  <folding stability dG>
2.78 kcal/mol

$$$$
>  <mutations>
F35C

>  <folding stability dG>
3.05 kcal/mol

$$$$
>  <mutations>
K20H

>  <folding stability dG>
2.2 kcal/mol

$$$$
>  <mutations>
N30H

>  <folding stability dG>
2.47 kcal/mol

$$$$

Query :: Determine from records and report folding stability dG for G7C
Result :: 3.05 kcal/mol

Query :: Determine from records and report folding stability dG for A22K
Result :: 1.21 kcal/mol
